meta.source: the supplement of paper PMC5579334

# Test system: YST-1
# PROTOCOL SUMMARY: relative IC50 (inflection point of fitted dose-response curve, CellTiter-Glo viability, 72 h; top asymptote may be below 50% inhibition); higher = less potent
ENDPOINT LABEL: relative IC50 (nM)
Please give a number only; it is taken to be in nM.

1) Cc1cc(Nc2cc(CN3CCOCC3)c3nc(C)c(Cc4ccc(Cl)cc4F)n3n2)n[nH]1    1170
2) CCn1c(-c2nonc2N)nc2cnc(Oc3cccc(NC(=O)c4ccc(OCCN5CCOCC5)cc4)c3)cc21    618

Form: Entry = COc1ncc(-c2ccc3nccc(-c4ccnnc4)c3c2)cc1NS(=O)(=O)c1ccc(F)cc1F | System = YST-1 | relative IC50 = ____
6.88

* * *

# Test system: S462
# PROTOCOL SUMMARY: drug sensitivity score (DSS, CellTiter-Glo viability, 72 h) (DSS (dimensionless)); higher = more sensitive; extreme values may be limits of the assay
compounds and their reported drug sensitivity score

1. Cn1c(=O)c(F)c(Nc2ccc(I)cc2F)c2c(=O)n(C[C@@H](O)CO)cnc21 [TAK-733] (max concentration tested 1000 nM)    10.3
2. CC[C@]1(O)C[C@H]2CN(CCc3c([nH]c4ccccc34)[C@@](C(=O)OC)(c3cc4c(cc3OC)N(C=O)[C@H]3[C@@](O)(C(=O)OC)[C@H](OC(C)=O)[C@]5(CC)C=CCN6CC[C@]43[C@@H]65)C2)C1 [Vincristine] (max concentration tested 1000 nM)    28.9

Moving on to another compound below.
So what's the measured drug sensitivity score for this one? COc1cccc2c1C(=O)c1c(O)c3c(c(O)c1C2=O)C[C@@](O)(C(C)=O)C[C@@H]3O[C@H]1C[C@H](N)[C@H](O)[C@H](C)O1 [Daunorubicin] (max concentration tested 1000 nM)
14.9

* * *

# System: STS26T
# PROTOCOL SUMMARY: % inhibition of CellTiter-Glo viability at highest tested concentration (72 h), relative to DMSO and benzethonium chloride controls; higher = more inhibition
compounds and their reported % inhibition
Remember to quote the unit after the number.

In the examples that follow, each entry is paired with its recorded % inhibition.
1. CC1(C)CCC(CN2CCN(c3ccc(C(=O)NS(=O)(=O)c4ccc(NCC5CCOCC5)c([N+](=O)[O-])c4)c(Oc4cnc5[nH]ccc5c4)c3)CC2)=C(c2ccc(Cl)cc2)C1 [ABT-199] (max concentration tested 10000 nM)    3.69%
2. C[C@@H]1CCN(C(=O)CC#N)C[C@@H]1N(C)c1ncnc2[nH]ccc12 [Tofacitinib] (max concentration tested 5000 nM)    10.4%
3. CO[C@H]1C[C@@H]2CC[C@@H](C)[C@@](O)(O2)C(=O)C(=O)N2CCCC[C@H]2C(=O)O[C@H]([C@H](C)C[C@@H]2CC[C@@H](OP(C)(C)=O)[C@H](OC)C2)CC(=O)[C@H](C)/C=C(\C)[C@@H](O)[C@@H](OC)C(=O)[C@H](C)C[C@H](C)/C=C/C=C/C=C/1C [Ridaforolimus] (max concentration tested 100 nM)    48.8%
4. Oc1ncc(N(CCCl)CCCl)c(O)n1 [Uracil mustard] (max concentration tested 10000 nM)    1.52%
5. Nc1nc(Cl)nc2c1ncn2[C@@H]1O[C@H](CO)[C@@H](O)[C@@H]1F [Clofarabine] (max concentration tested 10000 nM)    87.7%
6. CO[C@H](C(=O)[C@@H](O)[C@@H](C)O)[C@@H]1Cc2cc3cc(O[C@H]4C[C@@H](O[C@H]5C[C@@H](O)[C@H](O)[C@@H](C)O5)[C@@H](O)[C@@H](C)O4)c(C)c(O)c3c(O)c2C(=O)[C@H]1O[C@H]1C[C@@H](O[C@H]2C[C@@H](O[C@H]3C[C@](C)(O)[C@H](O)[C@@H](C)O3)[C@H](O)[C@@H](C)O2)[C@H](O)[C@@H](C)O1 [Plicamycin] (max concentration tested 10000 nM)    95.8%
7. CS(=O)(=O)OCCCCOS(C)(=O)=O [Busulfan] (max concentration tested 100000 nM)    3.36%
8. CCN(CC)CCCC(C)Nc1c2ccc(Cl)cc2nc2ccc(OC)cc12 (centres undefined) [Mepacrine aq] (max concentration tested 50000 nM)    96.5%

Moving on to another compound below.
So what's the measured % inhibition for this one? CO[C@@H](C(=O)N1Cc2[nH]nc(NC(=O)c3ccc(N4CCN(C)CC4)cc3)c2C1)c1ccccc1 [Danusertib] (max concentration tested 10000 nM)
52.5%
